# Tested on: hN + hpA co-culture (H1 iNGN2 human neurons + human primary astrocytes)
# assay_notes: presynaptic density (SYNAPSIN1 puncta per MAP2 neurite area), Z-score vs DMSO controls; higher = more presynaptic puncta (synapse-promoting)
# condition_info: 3 µM; 72 h
Label rule, in plain words: presynaptic density (Z-score) of -0.2 and up is true (1), under -0.2 is false (0).

Check out these entries, answers already filled in.
molecule	label_class
N#CC1(c2ccc(NC(=O)c3cccnc3NCc3ccncc3)cc2)CCCC1 [Apatinib]	false (0)
Cc1ccc(S(=O)(=O)OCC(=O)Nc2ccc(C(=O)O)c(O)c2)cc1	false (0)
O=S(=O)(c1ccccc1)N(CC(F)(F)F)c1ccc(C(O)(C(F)(F)F)C(F)(F)F)cc1	false (0)
COc1cc2c(N3CCN(C(=O)Nc4ccc(OC(C)C)cc4)CC3)ncnc2cc1OCCCN1CCCCC1	true (1)
CN[C@@H](C)C(=O)N[C@H](C(=O)N1CCC[C@H]1C(=O)Nc1snnc1-c1ccccc1)C1CCCCC1	true (1)

Check this molecule for presynaptic density (Z-score) at or above -0.2: O=C(Cc1ccc(-c2ccc(OCCN3CCOCC3)cc2)cn1)NCc1ccccc1
false (0)

Check this molecule for presynaptic density (Z-score) at or above -0.2: Cc1ccc(S(=O)(=O)NC(=O)NN2CC3CCCC3C2)cc1 (centres undefined)
true (1)

Check this molecule for presynaptic density (Z-score) at or above -0.2: O=C(Nc1nc2cccc(-c3ccc(CN4CCS(=O)(=O)CC4)cc3)n2n1)C1CC1 [Filgotinib (GLPG0634)]
false (0)

* * *

# Tested on: hN + hpA co-culture (H1 iNGN2 human neurons + human primary astrocytes)
# assay_notes: presynaptic density (SYNAPSIN1 puncta per MAP2 neurite area), Z-score vs DMSO controls; higher = more presynaptic puncta (synapse-promoting)
# condition_info: 3 µM; 72 h
Label rule, in plain words: presynaptic density (Z-score) of -1 and up is Fulfilled, under -1 is Not fulfilled.

compound	measured_on	label_class
CN(C)CCOc1ccc(/C(=C(/CCCl)c2ccccc2)c2ccccc2)cc1	hN + hpA co-culture (H1 iNGN2 human neurons + human primary astrocytes)	Fulfilled
O=c1oc2cc(O)ccc2s1	hN + hpA co-culture (H1 iNGN2 human neurons + human primary astrocytes)	Fulfilled
Cc1nnc(C(C)C)n1C1C[C@H]2CC[C@@H](C1)N2CC[C@H](NC(=O)C1CCC(F)(F)CC1)c1ccccc1 (stereo in doubt)	hN + hpA co-culture (H1 iNGN2 human neurons + human primary astrocytes)	Not fulfilled
Cc1c(C(=O)Nc2ccc(N3C[C@@H](C)O[C@@H](C)C3)nc2)cccc1-c1ccc(OC(F)(F)F)cc1	hN + hpA co-culture (H1 iNGN2 human neurons + human primary astrocytes)	Fulfilled
COc1ccccc1OCCNCC(O)COc1cccc2[nH]c3ccccc3c12 (centres undefined)	hN + hpA co-culture (H1 iNGN2 human neurons + human primary astrocytes)	Not fulfilled
Cc1ccc2c(=O)c3cccc(CC(=O)O)c3oc2c1C	hN + hpA co-culture (H1 iNGN2 human neurons + human primary astrocytes)	Not fulfilled
N#Cc1c(O)c2c(-c3ccc(-c4ccccc4O)cc3)csc2[nH]c1=O	hN + hpA co-culture (H1 iNGN2 human neurons + human primary astrocytes)	Not fulfilled
CC1COCCN1c1cc(C2(S(C)(=O)=O)CC2)nc(-c2cccc3[nH]ccc23)n1 (centres undefined)	hN + hpA co-culture (H1 iNGN2 human neurons + human primary astrocytes)	Fulfilled

Check this compound for presynaptic density (Z-score) at or above -1: CN[C@H]1CC[C@@H](c2ccc(Cl)c(Cl)c2)c2ccccc21
Fulfilled

* * *

# Test system: hN + hpA co-culture (H1 iNGN2 human neurons + human primary astrocytes)
# assay_notes: presynaptic density (SYNAPSIN1 puncta per MAP2 neurite area), Z-score vs DMSO controls; higher = more presynaptic puncta (synapse-promoting)
# condition_info: 3 µM; 72 h
observation_type: presynaptic density (Z-score)

molecule	measured_on	presynaptic density (Z-score)
NS(=O)(=O)c1ccc(NC(=O)Nc2ccc(F)cc2)cc1	hN + hpA co-culture (H1 iNGN2 human neurons + human primary astrocytes)	0.585
COc1cc(F)c(C(C)C)cc1-c1ccc(C(F)(F)F)cc1CN1C(=O)O[C@H](c2cc(C(F)(F)F)cc(C(F)(F)F)c2)[C@@H]1C [Anacetrapib (MK-0859)]	hN + hpA co-culture (H1 iNGN2 human neurons + human primary astrocytes)	-0.588
O=C(NC[C@H]1CN(c2ccc(N3CCOCC3=O)cc2)C(=O)O1)c1ccc(Cl)s1 [Rivaroxaban]	hN + hpA co-culture (H1 iNGN2 human neurons + human primary astrocytes)	-0.11

Please look at the items below and tell me presynaptic density (Z-score) for each one, in order.
1. Cc1ccc([C@@H]2O[C@H](CO)[C@@H](O)[C@H](O)[C@H]2O)cc1Cc1ccc(-c2ccc(F)cc2)s1 [Canagliflozin]
2. Oc1nc(-c2ccc(C(F)(F)F)cc2)nc2c1CSCC2
3. CNC(=O)c1ccc2cc([C@@]3(O)CCn4cncc43)ccc2c1 [TAK-700 (Orteronel)]

-0.473
0.167
0.215

* * *

# Tested on: hN + hpA co-culture (H1 iNGN2 human neurons + human primary astrocytes)
# assay_notes: presynaptic density (SYNAPSIN1 puncta per MAP2 neurite area), Z-score vs DMSO controls; higher = more presynaptic puncta (synapse-promoting)
# condition_info: 3 µM; 72 h
Label rule, in plain words: presynaptic density (Z-score) of -0.4 and up is condition met, under -0.4 is condition not met.

Check out these entries, answers already filled in.
compound	measured_on	label_class
CC(C)(C)c1cc(/C=C(\C#N)C(N)=S)cc(C(C)(C)C)c1O	hN + hpA co-culture (H1 iNGN2 human neurons + human primary astrocytes)	condition met
C=C1C(=O)O[C@H]2[C@H]1CC/C(C)=C/CC[C@@]1(C)O[C@@H]21 [(-)-Parthenolide]	hN + hpA co-culture (H1 iNGN2 human neurons + human primary astrocytes)	condition not met
COc1ccc2c(c1)c(CC(=O)N1CCOCC1)c(C)n2C(=O)c1ccc(Cl)cc1	hN + hpA co-culture (H1 iNGN2 human neurons + human primary astrocytes)	condition not met
COc1cc(OC)c(NC(=O)Nc2cc(C)on2)cc1Cl	hN + hpA co-culture (H1 iNGN2 human neurons + human primary astrocytes)	condition not met
CN1CC(=O)N2[C@H](c3ccc4c(c3)OCO4)c3[nH]c4ccccc4c3C[C@@H]2C1=O	hN + hpA co-culture (H1 iNGN2 human neurons + human primary astrocytes)	condition not met
O=C1C(=O)N(Cc2ccc(Cl)c(Cl)c2)c2ccccc21 [1-[(3 4-Dichlorophenyl)methyl]-1H-indole-2 3-dione]	hN + hpA co-culture (H1 iNGN2 human neurons + human primary astrocytes)	condition met
Cn1cnc2c(F)c(Nc3ccc(Br)cc3Cl)c(C(=O)NOCCO)cc21	hN + hpA co-culture (H1 iNGN2 human neurons + human primary astrocytes)	condition met
CCOc1nc2cccc(C(=O)O)c2n1Cc1ccc(-c2ccccc2-c2nnn[nH]2)cc1	hN + hpA co-culture (H1 iNGN2 human neurons + human primary astrocytes)	condition met

Query compound follows.
Check this compound for presynaptic density (Z-score) at or above -0.4: COc1ccc(CNCc2cccc3ccccc23)cc1
condition not met

* * *

# Tested on: hN + hpA co-culture (H1 iNGN2 human neurons + human primary astrocytes);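 note: immunostained co-cultures imaged by high-content microscopy, Z-score per plate against mean and SD of 0.1% DMSO wells, compounds added on differentiation day 18, analysed day 21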
# assay_notes: presynaptic density (SYNAPSIN1 puncta per MAP2 neurite area), Z-score vs DMSO controls; higher = more presynaptic puncta (synapse-promoting)
# condition_info: 3 µM; 72 h
Structures can show the parent of a compound that is named as a salt.
observation_type: presynaptic density (Z-score)
Give bare numbers.

compound	measured_on	presynaptic density (Z-score)
CC(C)[C@H](O)C(=O)N[C@@H](C)C(=O)N[C@@H]1C(=O)N(C)CCc2ccccc21	hN + hpA co-culture (H1 iNGN2 human neurons + human primary astrocytes)	-0.185
Oc1ncnc2[nH]ncc12	hN + hpA co-culture (H1 iNGN2 human neurons + human primary astrocytes)	-0.774
COc1cc(N2CCC(N)CC2)ccc1Nc1ncc(Cl)c(-c2c[nH]c3ccccc23)n1	hN + hpA co-culture (H1 iNGN2 human neurons + human primary astrocytes)	-0.26
COc1ccnc2[nH]cc(C(=O)C(=O)N3CCN(C(=O)c4ccccc4)C[C@H]3C)c12	hN + hpA co-culture (H1 iNGN2 human neurons + human primary astrocytes)	0.386
Cc1ccc(C(=O)N(CCCN)[C@@H](c2nc3cc(Cl)ccc3c(=O)n2Cc2ccccc2)C(C)C)cc1	hN + hpA co-culture (H1 iNGN2 human neurons + human primary astrocytes)	-0.26
COc1ccc(-n2nc(C(N)=O)c3c2C(=O)N(c2ccc(N4CCCCC4=O)cc2)CC3)cc1	hN + hpA co-culture (H1 iNGN2 human neurons + human primary astrocytes)	0.0881

Please look at the items below and tell me presynaptic density (Z-score) for each one, in order.
1. COCCCC/C(=N\OCCN)c1ccc(C(F)(F)F)cc1 [Fluvoxamine maleate]
2. C[C@]1(c2nc3c(C(N)=O)cccc3[nH]2)CCCN1
3. CC(C)NCCCn1c(Sc2cc3c(cc2I)OCO3)nc2c(N)ncnc21
4. CC[C@H](NC(=O)[C@H](C)NC)C(=O)N1C[C@@H](O)C[C@H]1Cc1c(-c2[nH]c3cc(F)ccc3c2C[C@@H]2C[C@H](O)CN2C(=O)[C@H](CC)NC(=O)[C@H](C)NC)[nH]c2cc(F)ccc12

-0.239
0.43
-0.039
0.314

Taken from the supplement of paper PMC10121225.
